# method: Plasma pharmacokinetics of lenvatinib, carboplatin and paclitaxel
# Type: in vivo
# test_settings: human, oral, 6 mg, Median time of maximum concentration (tmax), lenvatinib, across 4 and 6 mg BID groups
observed_property: Tmax

In [3]: df
Out[3]:
                                   molecule  observed_property          result
0  COc1cc2nccc(Oc3ccc(NC(=O)NC4CC4)c(Cl)c3)c2cc1C(N)=O [lenvatinib, Lenvatinib]               Tmax  4.18 to 4.27 h

---

# method: Plasma pharmacokinetics of lenvatinib, carboplatin and paclitaxel
# Assay type: in vivo
# test_settings: human, oral, 4 mg
observed_property: Cmax (ng/mL)

>>> print(df.to_string())
                               input_smiles  numeric_readout
0  COc1cc2nccc(Oc3ccc(NC(=O)NC4CC4)c(Cl)c3)c2cc1C(N)=O             97.5
